Sourced from patent US20250152746A1

system: PCSK9 gene; experiment: PCSK9 gRNA/SpCas9 editing in primary human hepatocytes (Tables 2, 4); type: cell-based; conditions: 500 ng/RNA/mL; SpCas9 mRNA MS002 1:1 by weight
In the oligonucleotide strings, read from the 5' end, every base follows the letter of its sugar. An asterisk marks phosphorothioate; unmarked linkages are phosphodiester. Other units and linkages are bracketed, terminal groups are in braces. A string of capitals states the bases alone. m = 2'-O-methyl; r = 2'-OH (RNA)
Threshold check on Human Primary Hepatocyte Editing % 500: strictly below 6% is true (1); on or above 6% is false (0).

Consider the following illustrative entries.
[
  {
    "MOLECULE": "GA206: PCSK9 gRNA; protospacer CCGGTGGTCACTCTGTATGC (SEQ ID NO: 200) (nucleic acid, sugars from the 5' end m3 r94 m3, linkages s3 o93 s3 (s phosphorothioate, o phosphodiester), T or U not given here) guide: CCGGUGGUCACUCUGUAUGCGUUUUAGAGCUAGAAAUAGCAAGUUAAAAUAAGGCUAGUCCGUUAUCAACUUGAAAAAGUGGCACCGAGUCGGUGCUUUU",
    "QUALITATIVE LABEL": "true (1)"
  },
  {
    "MOLECULE": "GA159: PCSK9 gRNA; protospacer GCGTTCCGAGGAGGACGGCC (SEQ ID NO: 153) (nucleic acid) guide: mG*mC*mG*rUrUrCrCrGrArGrGrArGrGrArCrGrGrCrCrGrUrUrUrUrArGrArGrCrUrArGrArArArUrArGrCrArArGrUrUrArArArArUrArArGrGrCrUrArGrUrCrCrGrUrUrArUrCrArArCrUrUrGrArArArArArGrUrGrGrCrArCrCrGrArGrUrCrGrGrUrGrCrU*mU*mU*mU",
    "QUALITATIVE LABEL": "true (1)"
  },
  {
    "MOLECULE": "GA160: PCSK9 gRNA; protospacer GCCTTGCGTTCCGAGGAGGA (SEQ ID NO: 154) (nucleic acid, sugars from the 5' end m3 r94 m3, linkages s3 o93 s3 (s phosphorothioate, o phosphodiester), T or U not given here) guide: GCCUUGCGUUCCGAGGAGGAGUUUUAGAGCUAGAAAUAGCAAGUUAAAAUAAGGCUAGUCCGUUAUCAACUUGAAAAAGUGGCACCGAGUCGGUGCUUUU",
    "QUALITATIVE LABEL": "true (1)"
  },
  {
    "MOLECULE": "GA176: PCSK9 gRNA; protospacer AGCACCACCACGTAGGTGCC (SEQ ID NO: 170) (nucleic acid, sugars from the 5' end m3 r94 m3, linkages s3 o93 s3 (s phosphorothioate, o phosphodiester), T or U not given here) guide: AGCACCACCACGUAGGUGCCGUUUUAGAGCUAGAAAUAGCAAGUUAAAAUAAGGCUAGUCCGUUAUCAACUUGAAAAAGUGGCACCGAGUCGGUGCUUUU",
    "QUALITATIVE LABEL": "true (1)"
  },
  {
    "MOLECULE": "GA214: PCSK9 gRNA; protospacer CCTTGGCCACGCCGGCATCC (SEQ ID NO: 208) (nucleic acid, sugars from the 5' end m3 r94 m3, linkages s3 o93 s3 (s phosphorothioate, o phosphodiester), T or U not given here) guide: CCUUGGCCACGCCGGCAUCCGUUUUAGAGCUAGAAAUAGCAAGUUAAAAUAAGGCUAGUCCGUUAUCAACUUGAAAAAGUGGCACCGAGUCGGUGCUUUU",
    "QUALITATIVE LABEL": "false (0)"
  }
]

hey, is Human Primary Hepatocyte Editing % 500 for GA224: PCSK9 gRNA; protospacer GGCCGCTGACCACCCCTGCC (SEQ ID NO: 218) (nucleic acid, sugars from the 5' end m3 r94 m3, linkages s3 o93 s3 (s phosphorothioate, o phosphodiester), T or U not given here) guide: GGCCGCUGACCACCCCUGCCGUUUUAGAGCUAGAAAUAGCAAGUUAAAAUAAGGCUAGUCCGUUAUCAACUUGAAAAAGUGGCACCGAGUCGGUGCUUUU lower than 6% or not?
true (1)
